- RUN_DESCRIPTION: Edotecarin plasma pharmacokinetics in cancer patients after 1-h IV infusion
- Format: in vivo, human
- SETTINGS: human, plasma, intravenous, Tmax, cycle 1; mean ± SD
OBSERVABLE: Tmax

Any idea what Tmax was measured for "O=C1c2c(c3c4ccc(O)cc4n([C@@H]4O[C@H](CO)[C@@H](O)[C@H](O)[C@H]4O)c3c3[nH]c4cc(O)ccc4c23)C(=O)N1NC(CO)CO" ? 28.8 min

---

- RUN_DESCRIPTION: Edotecarin plasma pharmacokinetics in cancer patients after 1-h IV infusion
- Assay type: in vivo, human
- SETTINGS: human, plasma, intravenous, T (terminal half-life), cycle 1; mean ± SD
OBSERVABLE: half-life

Any idea what half-life was measured for "O=C1c2c(c3c4ccc(O)cc4n([C@@H]4O[C@H](CO)[C@@H](O)[C@H](O)[C@H]4O)c3c3[nH]c4cc(O)ccc4c23)C(=O)N1NC(CO)CO" ? ~25 h
